test system: A549; assay: Cell viability MTS assay; format: cell-based, human; details: Homo sapiens, A549, 72 hours with compound
ENDPOINT: IC50 (µM)

Solved cases (5 shown):
O=C1NC(=O)C(c2cn3c4c(cccc24)CCC3)=C1c1cccc2ccccc12 [Example 19]	41
O=C1NC(=O)[C@@H](c2cn3c4c(cccc24)CCC3)[C@H]1c1ccc(F)cc1Cl (racemic) [Example 54]	22.1
O=C1NC(=O)C(c2cn3c4c(cccc24)CCC3)=C1c1ccccc1Br [Example 21]	28.6
O=C1NC(=O)[C@@H](c2cn3c4c(cccc24)CCC3)[C@@H]1c1c[nH]c2ccccc12 (racemic)	10.7
O=C1NC(=O)C(c2cn3c4c(cccc24)CCC3)C1c1c[nH]c2ccccc12 (single isomer, unassigned; (-))	5.8

1 = CN1C(=O)[C@H](c2cn(C)c3ccccc23)[C@H](c2cn3c4c(cccc24)CCC3)C1=O (racemic) [Example 61]
2 = O=C1NC(=O)[C@@H](c2cn3c4c(cccc24)CCC3)[C@H]1c1cccc(Cl)c1 (racemic) [Example 55]
Input: Of the two listed items, which has the higher IC50? First: 1 Second: 2 Reply with the label of the item you choose.
Output: 1
(1: 78.9 µM, 2: 13.1 µM)

----------
molecular target: c-Met (Homo sapiens, UniProt P08581); test: c-Met inhibition, phospho-c-Met blot with densitometry (Example 83); type: cell-based; set-up: whole cell extracts were prepared; endogenous in cells; host or cells: MCF-7, MDA-MB-231, DLD1, HT29, PACA2, PANC-1, NCI-H441; conditions: H441 cells, 24 hours treatment; read-out: (−)-trans IC50 c-Met Inhibition
Sequence (P08581 25-1390): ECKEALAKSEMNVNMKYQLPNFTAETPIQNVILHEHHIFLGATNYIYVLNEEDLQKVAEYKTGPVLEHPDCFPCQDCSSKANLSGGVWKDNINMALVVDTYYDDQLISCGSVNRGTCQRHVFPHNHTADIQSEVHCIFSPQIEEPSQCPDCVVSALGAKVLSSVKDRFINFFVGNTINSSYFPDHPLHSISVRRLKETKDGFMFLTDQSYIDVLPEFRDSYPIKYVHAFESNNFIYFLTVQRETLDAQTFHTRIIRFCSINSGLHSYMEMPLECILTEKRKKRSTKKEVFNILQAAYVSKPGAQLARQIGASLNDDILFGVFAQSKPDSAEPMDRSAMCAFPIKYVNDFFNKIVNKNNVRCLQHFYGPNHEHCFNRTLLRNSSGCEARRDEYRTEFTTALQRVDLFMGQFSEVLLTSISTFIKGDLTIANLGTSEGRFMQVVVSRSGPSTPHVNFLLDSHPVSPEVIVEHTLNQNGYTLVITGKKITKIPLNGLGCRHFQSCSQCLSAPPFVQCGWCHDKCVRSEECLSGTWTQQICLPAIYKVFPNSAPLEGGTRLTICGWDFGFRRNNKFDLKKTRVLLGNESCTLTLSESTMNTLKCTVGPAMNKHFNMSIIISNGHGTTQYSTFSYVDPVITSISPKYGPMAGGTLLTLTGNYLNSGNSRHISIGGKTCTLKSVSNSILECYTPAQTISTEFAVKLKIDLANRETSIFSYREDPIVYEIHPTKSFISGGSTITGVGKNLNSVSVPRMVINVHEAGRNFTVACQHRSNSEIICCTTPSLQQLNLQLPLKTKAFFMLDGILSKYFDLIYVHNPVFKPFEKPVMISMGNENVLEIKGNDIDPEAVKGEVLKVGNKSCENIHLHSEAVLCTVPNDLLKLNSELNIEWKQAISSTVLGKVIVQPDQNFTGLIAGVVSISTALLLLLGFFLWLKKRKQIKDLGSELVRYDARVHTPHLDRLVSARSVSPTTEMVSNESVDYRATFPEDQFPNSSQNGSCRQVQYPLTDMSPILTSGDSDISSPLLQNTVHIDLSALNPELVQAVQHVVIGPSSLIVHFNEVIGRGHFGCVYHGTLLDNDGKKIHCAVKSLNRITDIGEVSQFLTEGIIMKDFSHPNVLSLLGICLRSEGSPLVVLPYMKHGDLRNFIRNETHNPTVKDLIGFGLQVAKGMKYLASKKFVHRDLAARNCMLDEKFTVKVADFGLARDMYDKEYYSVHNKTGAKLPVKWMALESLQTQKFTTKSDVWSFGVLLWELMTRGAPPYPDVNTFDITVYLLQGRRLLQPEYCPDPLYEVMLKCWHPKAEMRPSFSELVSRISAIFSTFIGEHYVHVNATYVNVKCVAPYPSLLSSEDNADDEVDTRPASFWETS
ENDPOINT: pIC50
Please keep in mind that pIC50 is minus log10 of the molar concentration; only the number is needed.

compound O=C1NC(=O)C(c2cn3c4c(cccc24)CCC3)C1c1c[nH]c2ccccc12 (single isomer, unassigned; (-)) , pIC50 observed: 7.00

----------
test system: MDA-MB-231; assay: Cell viability MTS assay; assay type: cell-based, human; conditions: Homo sapiens, MDA-MB-231, 72 hours with compound
pIC50: −log10 of the molar value.
ENDPOINT: pIC50

COc1ccc(-c2ccc3[nH]cc([C@@H]4C(=O)NC(=O)[C@H]4c4cn5c6c(cccc46)CCC5)c3c2)cc1 (racemic)	4.88

1 = O=C1NC(=O)C(c2cn3c4c(cccc24)CCC3)=C1c1cccnc1
2 = O=C1NC(=O)[C@@H](c2cn3c4c(cccc24)CCC3)[C@@H]1c1ccc(F)cc1 (racemic)
Input: Of the two listed items, which has the higher pIC50? First: 1 Second: 2 Reply with the label of the item you choose.
Output: 1
(1: 4.54, 2: 4.31)

----------
molecular target: c-Met (Homo sapiens, UniProt P08581); assay: c-Met inhibition, phospho-c-Met blot with densitometry (Example 83); type: cell-based; design: whole cell extracts were prepared; endogenous in cells; host or cells: MCF-7, MDA-MB-231, DLD1, HT29, PACA2, PANC-1, NCI-H441; details: DLD-1 cells, 24 hours treatment; read-out: (−)-trans IC50 c-Met Inhibition
ENDPOINT: pIC50
Please keep in mind that pIC50 is minus log10 of the molar concentration; only the number is needed.

pIC50 for c-Met (Homo sapiens, UniProt P08581) with input O=C1NC(=O)C(c2cn3c4c(cccc24)CCC3)C1c1c[nH]c2ccccc12 (single isomer, unassigned; (-)) equals 5.52

Source listed as patent US7713969B2.
